Target: human KISS1R receptor (human, UniProt Q969F8 1-398)
Sequence (Q969F8 whole entry): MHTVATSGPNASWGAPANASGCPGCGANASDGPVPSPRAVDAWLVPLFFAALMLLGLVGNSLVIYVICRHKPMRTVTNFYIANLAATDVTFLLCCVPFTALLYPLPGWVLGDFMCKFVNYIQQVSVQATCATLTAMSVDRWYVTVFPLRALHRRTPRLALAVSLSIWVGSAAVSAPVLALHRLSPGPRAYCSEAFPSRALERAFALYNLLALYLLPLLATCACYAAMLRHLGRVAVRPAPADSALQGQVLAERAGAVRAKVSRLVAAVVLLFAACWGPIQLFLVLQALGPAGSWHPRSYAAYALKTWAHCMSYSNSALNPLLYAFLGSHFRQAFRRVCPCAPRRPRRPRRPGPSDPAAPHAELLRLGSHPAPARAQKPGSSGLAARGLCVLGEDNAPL
Experiment: cell-based or functional assay
*1 amine or outer side, *2 acyl side, *3 side chain or, on linkers, in order; H or OH if unused. Side-chain parts run from the residue outwards. [ ]: non-standard residue; d: D form. The star is where a group is joined. PEG5000 = COCH2CH2NH(CH2CH2O)nMe, about 5000 g/mol; γGlu = O=C(O)[C@H](CCC(=O)[*:2])N[*:1]; Arg(Me) = CNC(=N)NCCC[C@H](N)C(=O)O; Palmitoyl = CCCCCCCCCCCCCCCC(=O)*
reported-endpoint: EC50 (nM), intracellular calcium mobilization of cells expressing human KISS1R

Qu. Return the recorded EC50 (nM), intracellular calcium mobilization of cells expressing human KISS1R value; entry: Ac-YK(2‑(succinamido)‑6‑(4-(4-iodophenyl)butanamido)hexanoate)WNSFGLRY-NH2 (also: Gly7-Leu8 peptide bond replaced by 1,4-disubstituted 1,2,3-triazole)
Ans. 0.001 nM

Qu. Return the recorded EC50 (nM), intracellular calcium mobilization of cells expressing human KISS1R value; entry: Ac-YK(PEG5000)WNSFGLRY-NH2 (also: Gly7-Leu8 peptide bond replaced by 1,4-disubstituted 1,2,3-triazole) [peptide compound C16, Ac-Tyr-Lys(PEG5000)-Trp-Asn-Ser-Phe-GlyΨ[Tz]Leu-Arg-Tyr-NH2]
Ans. 4.17 nM

Qu. Return the recorded EC50 (nM), intracellular calcium mobilization of cells expressing human KISS1R value; entry: {Palmitoyl-γGlu}-YNWNSFGL[Arg(Me)]Y-NH2 (also: Gly7-Leu8 peptide bond replaced by 1,4-disubstituted 1,2,3-triazole) [peptide compound C12, γ-(N-hexadecanoyl-Glu-OH)Tyr-Asn-Trp-Asn-Ser-Phe-GlyΨ[Tz]Leu-Arg(Me)-Tyr-NH2]
Ans. < 0.001 nM

Qu. Return the recorded EC50 (nM), intracellular calcium mobilization of cells expressing human KISS1R value; entry: Ac-YK([γGlu-Palmitoyl])WNSFGLRY-NH2 (also: Gly7-Leu8 peptide bond replaced by 1,4-disubstituted 1,2,3-triazole) [peptide compound C8, Ac-Tyr-Lys(γ-(N-hexadecanoyl-Glu-OH))-Trp-Asn-Ser-Phe-GlyΨ[Tz]Leu-Arg-Tyr-NH2]
Ans. 1.38 nM
